# TARGET OF ASSAY: HCMV polymerase (Human cytomegalovirus, UniProt P08546)
# Construct: made in house; host or cells: recombinant baculovirus-infected SF-9 cells
# Sequence (P08546 whole entry): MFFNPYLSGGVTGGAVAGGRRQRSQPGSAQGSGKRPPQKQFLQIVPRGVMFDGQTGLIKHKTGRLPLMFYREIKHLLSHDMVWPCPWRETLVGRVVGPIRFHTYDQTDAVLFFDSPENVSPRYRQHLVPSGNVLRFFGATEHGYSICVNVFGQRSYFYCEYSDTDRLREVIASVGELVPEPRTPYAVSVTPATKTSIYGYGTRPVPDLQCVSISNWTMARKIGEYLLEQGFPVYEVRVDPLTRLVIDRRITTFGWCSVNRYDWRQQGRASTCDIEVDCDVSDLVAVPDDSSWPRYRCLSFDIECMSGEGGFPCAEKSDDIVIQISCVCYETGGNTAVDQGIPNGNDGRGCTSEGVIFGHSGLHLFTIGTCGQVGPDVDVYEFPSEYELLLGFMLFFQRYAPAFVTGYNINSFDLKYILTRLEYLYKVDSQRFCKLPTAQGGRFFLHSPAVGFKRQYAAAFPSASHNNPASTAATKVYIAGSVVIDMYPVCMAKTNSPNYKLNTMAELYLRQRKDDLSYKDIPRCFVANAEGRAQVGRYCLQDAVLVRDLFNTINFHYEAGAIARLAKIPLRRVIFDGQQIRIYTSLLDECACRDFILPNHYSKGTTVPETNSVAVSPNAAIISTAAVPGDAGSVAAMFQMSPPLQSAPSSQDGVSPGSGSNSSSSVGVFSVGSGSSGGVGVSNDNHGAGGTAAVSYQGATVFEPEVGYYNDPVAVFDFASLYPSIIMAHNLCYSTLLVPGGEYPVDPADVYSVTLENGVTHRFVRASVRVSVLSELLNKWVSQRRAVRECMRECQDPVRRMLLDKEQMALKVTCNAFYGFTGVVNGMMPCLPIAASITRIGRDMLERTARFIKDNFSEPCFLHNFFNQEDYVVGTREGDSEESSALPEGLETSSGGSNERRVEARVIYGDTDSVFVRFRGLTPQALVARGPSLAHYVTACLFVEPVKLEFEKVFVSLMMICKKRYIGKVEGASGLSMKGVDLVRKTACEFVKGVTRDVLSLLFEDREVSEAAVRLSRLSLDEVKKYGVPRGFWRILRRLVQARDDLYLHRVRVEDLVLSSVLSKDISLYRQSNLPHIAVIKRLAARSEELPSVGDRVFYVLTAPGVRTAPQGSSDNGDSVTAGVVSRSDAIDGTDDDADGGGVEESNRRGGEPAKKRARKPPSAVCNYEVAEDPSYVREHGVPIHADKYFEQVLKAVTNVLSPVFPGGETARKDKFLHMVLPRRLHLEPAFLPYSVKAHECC
# PROTOCOL: HCMV polymerase assay (scintillation proximity assay)
# Type: biochemical
# CONDITIONS: Table 9; read-out: CMV pol Assay- IC50
pIC50: −log10 of the molar value.
MEASURE: pIC50

[[record]]
compound = "COC(=O)[C@H](Cc1ccc(OCc2ccccc2)cc1)NC(=O)c1ccc2cccnc2c1O"
target_of_assay = "HCMV polymerase (Human cytomegalovirus, UniProt P08546)"
measure = "pIC50"
inequality_symbol = "="
observed_result = 5.31

[[record]]
compound = "O=C(NCCc1ccc(Br)cc1)c1ccc2cccnc2c1O"
target_of_assay = "HCMV polymerase (Human cytomegalovirus, UniProt P08546)"
measure = "pIC50"
inequality_symbol = "="
observed_result = 5.30

[[record]]
compound = "O=C(NCc1ccccc1Sc1ccccc1CO)c1ccc2cccnc2c1O"
target_of_assay = "HCMV polymerase (Human cytomegalovirus, UniProt P08546)"
measure = "pIC50"
inequality_symbol = "="
observed_result = 5.03

[[record]]
compound = "O=C(NCCSc1ccccc1)c1ccc2cccnc2c1O"
target_of_assay = "HCMV polymerase (Human cytomegalovirus, UniProt P08546)"
measure = "pIC50"
inequality_symbol = "="
observed_result = 5.04

[[record]]
compound = "CCCCCCCNC(=O)c1ccc2cccnc2c1O"
target_of_assay = "HCMV polymerase (Human cytomegalovirus, UniProt P08546)"
measure = "pIC50"
inequality_symbol = "="
observed_result = 5.28

[[record]]
compound = "CCCCCCCCCNC(=O)c1ccc2cccnc2c1O"
target_of_assay = "HCMV polymerase (Human cytomegalovirus, UniProt P08546)"
measure = "pIC50"
inequality_symbol = "="
observed_result = 5.66

[[record]]
compound = "Cc1cccc(CNC(=O)c2ccc3cccnc3c2O)c1"
target_of_assay = "HCMV polymerase (Human cytomegalovirus, UniProt P08546)"
measure = "pIC50"
inequality_symbol = "="
observed_result = 4.65

[[record]]
compound = "O=C(NCC(O)c1ccccc1)c1ccc2cccnc2c1O (stereo not shown)"
target_of_assay = "HCMV polymerase (Human cytomegalovirus, UniProt P08546)"
measure = "pIC50"
inequality_symbol = "="
observed_result = 5.11

[[record]]
compound = "O=C(NCCc1ccc(Oc2ccccc2)cc1)c1ccc2cccnc2c1O"
target_of_assay = "HCMV polymerase (Human cytomegalovirus, UniProt P08546)"
measure = "pIC50"
inequality_symbol = "="
observed_result = 5.35

[[record]]
compound = "C[C@@H](NC(=O)c1ccc2cccnc2c1O)c1ccccc1"
target_of_assay = "HCMV polymerase (Human cytomegalovirus, UniProt P08546)"
measure = "pIC50"
inequality_symbol = "="
observed_result = 4.61

[[record]]
compound = "O=C(NCc1cc(F)ccc1F)c1ccc2cccnc2c1O"
target_of_assay = "HCMV polymerase (Human cytomegalovirus, UniProt P08546)"
measure = "pIC50"
inequality_symbol = "="
observed_result = 4.65

[[record]]
compound = "CCCCC(CC)CNC(=O)c1ccc2cccnc2c1O (stereo not shown)"
target_of_assay = "HCMV polymerase (Human cytomegalovirus, UniProt P08546)"
measure = "pIC50"
inequality_symbol = "="
observed_result = 5.49

[[record]]
compound = "O=C(NCCC(c1ccccc1)c1ccccc1)c1ccc2cccnc2c1O"
target_of_assay = "HCMV polymerase (Human cytomegalovirus, UniProt P08546)"
measure = "pIC50"
inequality_symbol = ">"
observed_result = 5.82

[[record]]
compound = "O=C(NCc1ccc(C(F)(F)F)cc1)c1ccc2cccnc2c1O"
target_of_assay = "HCMV polymerase (Human cytomegalovirus, UniProt P08546)"
measure = "pIC50"
inequality_symbol = "="
observed_result = 4.86

[[record]]
compound = "CC(C)(C)C1CCC(NC(=O)c2ccc3cccnc3c2O)CC1 (stereo not shown)"
target_of_assay = "HCMV polymerase (Human cytomegalovirus, UniProt P08546)"
measure = "pIC50"
inequality_symbol = "="
observed_result = 5.64

[[record]]
compound = "CCCCCCCCCCCNC(=O)c1ccc2cccnc2c1O"
target_of_assay = "HCMV polymerase (Human cytomegalovirus, UniProt P08546)"
measure = "pIC50"
inequality_symbol = ">"
observed_result = 5.51

[[record]]
compound = "COC(=O)C(Cc1ccc(O)cc1)NC(=O)c1ccc2cccnc2c1O (stereo not shown)"
target_of_assay = "HCMV polymerase (Human cytomegalovirus, UniProt P08546)"
measure = "pIC50"
inequality_symbol = "="
observed_result = 4.92

[[record]]
compound = "O=C(NCc1cccc(C(F)(F)F)c1)c1ccc2cccnc2c1O"
target_of_assay = "HCMV polymerase (Human cytomegalovirus, UniProt P08546)"
measure = "pIC50"
inequality_symbol = "="
observed_result = 5.07

[[record]]
compound = "O=C(NC1CCCCCC1)c1ccc2cccnc2c1O"
target_of_assay = "HCMV polymerase (Human cytomegalovirus, UniProt P08546)"
measure = "pIC50"
inequality_symbol = "="
observed_result = 4.62

[[record]]
compound = "O=C(NC1CCc2ccccc21)c1ccc2cccnc2c1O (stereo not shown)"
target_of_assay = "HCMV polymerase (Human cytomegalovirus, UniProt P08546)"
measure = "pIC50"
inequality_symbol = "="
observed_result = 4.88

[[record]]
compound = "CCCCCCC(C)NC(=O)c1ccc2cccnc2c1O (stereo not shown)"
target_of_assay = "HCMV polymerase (Human cytomegalovirus, UniProt P08546)"
measure = "pIC50"
inequality_symbol = "="
observed_result = 5.77

[[record]]
compound = "CC1CCCC(NC(=O)c2ccc3cccnc3c2O)C1C (stereo not shown)"
target_of_assay = "HCMV polymerase (Human cytomegalovirus, UniProt P08546)"
measure = "pIC50"
inequality_symbol = "="
observed_result = 5.08

[[record]]
compound = "O=C(NCCc1cccc(Cl)c1)c1ccc2cccnc2c1O"
target_of_assay = "HCMV polymerase (Human cytomegalovirus, UniProt P08546)"
measure = "pIC50"
inequality_symbol = "="
observed_result = 5.16

[[record]]
compound = "O=C(N[C@H](CO)Cc1ccc(O)cc1)c1ccc2cccnc2c1O"
target_of_assay = "HCMV polymerase (Human cytomegalovirus, UniProt P08546)"
measure = "pIC50"
inequality_symbol = "="
observed_result = 5.51

[[record]]
compound = "CC(C)(C)OC(=O)[C@H](Cc1ccc(O)cc1)NC(=O)c1ccc2cccnc2c1O"
target_of_assay = "HCMV polymerase (Human cytomegalovirus, UniProt P08546)"
measure = "pIC50"
inequality_symbol = "="
observed_result = 5.09

